meta.source: patent US20240059703A1

# system tested: KRAS G12C (Homo sapiens (Human), UniProt P01116, C118A/G12C)
# Sequence (P01116 other isoform, or with tags, fused parts or gaps G12C/C118A): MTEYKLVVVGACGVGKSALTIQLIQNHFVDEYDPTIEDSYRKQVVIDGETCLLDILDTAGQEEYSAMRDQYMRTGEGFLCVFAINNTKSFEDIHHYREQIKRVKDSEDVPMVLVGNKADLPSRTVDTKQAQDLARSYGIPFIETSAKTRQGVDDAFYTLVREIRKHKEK
# measurement description: 2 h coupled exchange assay
# Type: biochemical
# condition summary: Avg 2 h Coupled exchange IC50, 2 h compound pre-incubation
# Protocol: The term “2 h coupled exchange assay” or “20 h coupled exchange assay” as used herein refers to the assay described in the Section entitled “BIOLOGICAL EVALUATION.”
pIC50: −log10 of the molar value.
measured parameter: pIC50

C=CC(=O)N1CC2(CCN(c3nc4c(c(-c5ccccc5F)c3C#N)CCN(C3CC3)C4)C2)C1: 7.05
C=CC(=O)N1CC2(CCN(c3nc4cc(-c5scnc5C)cnc4c(-c4ccccc4Cl)c3C#N)C2)C1 (single isomer, unassigned) [Example 20-9]: 7.38
C=CC(=O)N1CC2(CCN(c3nc4c(c(-c5c(O)cccc5F)c3C#N)CCC(c3scnc3C)=C4)C2)C1 (single isomer, unassigned) [Example 23-50]: 7.42
C=CC(=O)N1CC2(CCN(c3nc4c(c(-c5ccccc5F)c3C#N)CCC(c3scnc3C)=C4)C2)C1: 7.14
C=CC(=O)N1CC2(CCN(c3nc4c(c(-c5c(C)c(Cl)cc6cnn(C)c56)c3F)COC(C)(C)C4)C2)C1 [Example 14-55]: 6.68
C=CC(=O)N1CC2(CCN(c3nc4c(c(-c5ccccc5C)c3C#N)CC[C@@H](c3scnc3C)C4)C2)C1 (single isomer, unassigned) [Example 23-5]: 8.10
[2H]C([2H])([2H])n1ncc2ccc(C)c(-c3c(C)c(N4CCC5(CN(C(=O)C=C)C5)C4)nc4c3COC(C)(C)C4)c21: 6.65
C=CC(=O)N1CC2(CCN(c3nc4c(c(-c5cc(O)ccc5Cl)c3C#N)CN(Cc3scnc3C)C4)C2)C1: 6.41
C=CC(=O)N1CC2(CCN(c3nc4c(c(-c5cccc(O)c5F)c3C#N)CCC(c3scnc3C)=C4)C2)C1: 6.52
C=CC(=O)N1CC2(CCN(c3nc4c(c(-c5cc(O)ccc5C)c3F)C[C@H]3C[C@@H]4C3(C)C)C2)C1 (single isomer, unassigned) [Example 14-59]: 7.60
C=CC(=O)N1CC2(CCN(c3nc4c(c(-c5ccccc5F)c3C#N)CC[C@](C)(c3scnc3C)C4)C2)C1: 6.97
Cc1ccc2[nH]ncc2c1-c1c(Cl)c(N2CCC3(CN(C(=O)/C=C/CN(C)C)C3)C2)cc2c1OCCC2: 6.22
C=CC(=O)N1CC2(CCN(c3nc4c(c(-c5c(C)ccc6cnn(C)c56)c3C)CC[C@@H](c3c(C)cnn3C)C4)C2)C1 (single isomer, unassigned): 7.15
C=CC(=O)N1CC2(CCN(c3nc4c(c(-c5cc(O)ccc5C)c3C)COC(C)(C)C4)C2)C1 (single isomer, unassigned) [Example 14-32]: 5.52
C=CC(=O)N1CC2(CCN(c3nc4c(c(-c5cccc(F)c5F)c3C#N)CCC(c3scnc3C)=C4)C2)C1: 6.94
C=CC(=O)N1CC2(CCN(c3nc4cc(-c5scnc5C)ccc4c(-c4ccccc4C)c3C#N)C2)C1 (single isomer, unassigned) [Example 19-11]: 7.17
C=CC(=O)N1CC2(CCN(c3nc4c(c(-c5ccccc5F)c3C#N)CCN(CCCOC)C4)C2)C1: 5.95
C=CC(=O)N1CC2(CCN(c3nc4c(c(-c5ccc(F)c6sc(N)nc56)c3C#N)COC(C)(C)C4)C2)C1 (single isomer, unassigned) [Example 14-58]: 6.45
C=CC(=O)N1CC2(CCN(c3nc4c(c(-c5c(C)c(Cl)cc6cn[nH]c56)c3C#N)COC(C)(C)C4)C2)C1: 7.80
C=CC(=O)N1CC2(CCN(c3nc4cc(-c5nccn5C)ccc4c(-c4ccccc4Cl)c3C#N)C2)C1: 6.94
C=CC(=O)N1CC2(CCN(c3nc4c(c(-c5cccc6cc(O)ccc56)c3C)CCN(C)C4)C2)C1: 7.10
C=CC(=O)N1CC2(CCN(c3nc4cc(-c5ccnn5C)ccc4c(-c4c(C)cccc4F)c3C)C2)C1: 6.15
C=CC(=O)N1CC2(CCN(c3nc4c(c(-c5ccccc5Cl)c3C#N)CCC(c3scnc3C)=C4)C2)C1 [Example 23-19]: 7.06
C=CC(=O)N1CC2(CCN(c3nc4c(c(-c5ccccc5F)c3C#N)CCN(C(C)CN(C)C)C4)C2)C1 (centres unmarked): 6.75
C=CC(=O)N1CC2(CCN(c3nc4c(c(-c5ccc(F)c6sc(N)nc56)c3C#N)COC(C)(C)C4)C2)C1 (single isomer, unassigned) [Example 14-57]: 7.40
C=CC(=O)N1CC2(C1)CN(c1nc3cc(-c4ccnn4C)ccc3c(-c3ccccc3Cl)c1C#N)CC2(F)F: 7.01

* * *

Item-by-item account of IC50
# system tested: KRAS G12C (Homo sapiens (Human), UniProt P01116, C118A/G12C)
# measurement description: 2 h coupled exchange assay
# Assay type: biochemical
# condition summary: read-out: Avg 2 h Coupled exchange IC50, 2 h compound pre-incubation
measured parameter: IC50 (nM)

C=CC(=O)N1CC2(CCN(c3nc4ccccc4c(-c4c(C)ccc5[nH]ncc45)c3C=C)C2)C1 (atropisomer, axis not shown; (P)) [Example 26-1]: 140
C=CC(=O)N1CC2(CCN(c3nc4c(c(-c5cccc(C)c5C)n3)CC[C@@H](c3nccs3)C4)C2)C1 (racemic): 281
C=CC(=O)N1CC2(CCN(c3nc4ccccc4c(-c4c(C)ccc5[nH]ncc45)c3C=C)C2)C1 (atropisomer, axis not shown; (M)) [Example 26-2]: 34600

* * *

# system tested: KRAS G12C (Homo sapiens (Human), UniProt P01116, C118A/G12C)
# measurement description: 2 h coupled exchange assay
# Type: biochemical
# condition summary: Avg 2 h Coupled exchange IC50, 2 h compound pre-incubation
Flag rule - IC50 less than 500 nM flags class 1; the remaining entries get class 0.

C=CC(=O)N1CC2(CCN(c3nc4c(c(-c5ccccc5C)c3C#N)CC[C@H](c3scnc3C)C4)C2)C1 (single isomer, unassigned) [Example 23-4]: class 1
C=CC(=O)N1CC2(CCN(c3nc4c(c(-c5cc(NS(C)(=O)=O)cc6ccccc56)c3C#N)CC(C)(C)C4)C2)C1: class 1
C=CC(=O)N1CC2(CCN(c3nc4c(c(-c5ccc(F)cc5F)c3C#N)COC(c3scnc3C)C4)C2)C1 (stereo not drawn): class 1
C=CC(=O)N1CC2(CCN(c3nc4c(c(-c5cc(O)ccc5C)c3F)COC(C)(C)C4)C2)C1 (single isomer, unassigned) [Example 14-62]: class 0
C=CC(=O)N1CC2(CCN(c3nc4c(c(-c5[nH]c(=O)cc6ccccc56)c3C#N)CCC(C)(C)C4)C2)C1: class 0
C=CC(=O)N1CC2(CCN(c3nc4c(c(-c5ccc(F)cc5Cl)c3C#N)COC(c3scnc3C)C4)C2)C1 (stereo not drawn): class 1
C=CC(=O)N1CC2(CCN(c3nc4c(c(-c5cccc6cn[nH]c56)c3C#N)C[C@H]3C[C@@H]4C3(C)C)C2)C1 (single isomer, unassigned) [Example 14-28]: class 0
C=CC(=O)N1CC2(CCN(c3nc4cc(-c5ccnn5C)ccc4c(-c4ccc(F)cc4)c3C)C2)C1: class 0
C=CC(=O)N1CC2(CCN(c3nc4c(c(-c5cccc(F)c5O)c3C)CCN(c3scnc3C)C4)C2)C1: class 0
C=CC(=O)N1CC2(CCN(c3nc4c(c(-c5cc(O)cc6ccccc56)c3F)COC(C)(C)C4)C2)C1 (single isomer, unassigned) [Example 14-69]: class 0
C=CC(=O)N1CC2(CCN(c3nc4c(c(-c5c(C)c(Cl)cc6cnn(C)c56)c3F)COC(C)(C)C4)C2)C1 (single isomer, unassigned) [Example 14-78]: class 1
C=CC(=O)N1CC2(CCN(c3nc4c(c(-c5cccc6cn[nH]c56)c3C#N)C[C@H]3C[C@@H]4C3(C)C)C2)C1 (single isomer, unassigned) [Example 14-29]: class 1

* * *

Item-by-item account of IC50
# system tested: KRAS G12C (Homo sapiens (Human), UniProt P01116, C118A/G12C)
# measurement description: 2 h coupled exchange assay
# Format: biochemical
# condition summary: Avg 2 h Coupled exchange IC50, 2 h compound pre-incubation, SOS-mediated nucleotide exchange
measured parameter: IC50 (nM)

C=CC(=O)N1CC2(CCN(c3nc4c(c(-c5cc(O)ccc5C)c3Cl)COC(C)(C)C4)C2)C1 (single isomer, unassigned) [Example 2-81]: 53
C=CC(=O)N1CC2(CCN(c3nc4c(N5CCN(C)CC5)ccn4c(-c4c(C)ccc5[nH]ncc45)c3C#N)C2)C1: 99
C=CC(=O)N1CC2(CCN(c3nc4c(c(-c5cccc6c(O)cccc56)c3C#N)COC(C)(C)C4)C2)C1: 527

* * *

# system tested: KRAS G12C (Homo sapiens (Human), UniProt P01116, C118A/G12C)
# measurement description: 2 h coupled exchange assay
# Assay type: biochemical
# condition summary: Avg 2 h Coupled exchange IC50, 2 h compound pre-incubation, SOS-mediated nucleotide exchange
pIC50: −log10 of the molar value.
measured parameter: pIC50

C=CC(=O)N1CC2(CCN(c3nc4c(c(-c5ccnn5C)c3C#N)CC[C@@H](c3ccnn3C)C4)C2)C1 (single isomer, unassigned): 6.66
C=CC(=O)N1CC2(CCN(c3nc4c(c(-c5cc(O)c(F)c6ccccc56)c3C#N)CC[C@@H]3C[C@H]43)C2)C1 (single isomer, unassigned) [Example 13-74]: 7.12
C=CC(=O)N1CC2(CCN(c3nc4c(c(-c5c(C)ccc6[nH]ncc56)c3C#N)[C@H](C)O[C@H](C)C4)C2)C1 (racemic): 7.03
C=CC(=O)N1CC2(CCN(c3nc4c(c(-c5c(C)c(Cl)cc6[nH]ncc56)c3C)COC(C)(C)C4)C2)C1: 7.70
C=CC(=O)N1CC2(CCN(c3nc4c(c(-c5cc(O)cc6nccnc56)c3C#N)C[C@H]3C[C@@H]4C3(C)C)C2)C1 (single isomer, unassigned) [Example 12-39]: 5.41
C=CC(=O)N1CC2(CCN(c3nc4c(c(-c5c(C)ccc6[nH]ncc56)n3)CCC(C)C4)C2)C1 (stereo not drawn): 5.51
C=CC(=O)N1CC2(CCN(c3nc4c(c(-c5c(C)ccc6[nH]ncc56)c3C#N)[C@@H]3CC[C@H]4C3)C2)C1 (single isomer, unassigned) [Example 14-7]: 7.85
C=CC(=O)N1CC2(CCN(c3nc4c(c(-c5c(C)cccc5O)c3C#N)C[C@H]3C[C@@H]4C3)C2)C1 [Example 13-38]: 5.85
C=CC(=O)N1CC2(CCN(c3nc4c(c(-c5c(N)c(Cl)cc(Cl)c5F)c3C#N)COC(C)(C)C4)C2)C1 (single isomer, unassigned) [Example 13-155]: 6.95
C=CC(=O)N1CC2(CCN(c3nc4c(c(-c5c(C)ccc6cnn(C)c56)c3C#N)COC4(C)C)C2)C1 [Example 13-55]: 6.06
C=CC(=O)N1CC2(CCN(c3nc4c(c(-c5c(C)ccc6c(Cl)c[nH]c56)c3C#N)COC(C)(C)C4)C2)C1: 6.98
C=CC(=O)N1CC2(CCN(c3nc4c(c(-c5c(C)ccc6cnn(C)c56)c3C#N)CCC4(C)C)C2)C1 (single isomer, unassigned) [Example 13-103]: 6.55
C=CC(=O)N1CC2(CCN(c3nc4c(c(-c5c(C)ccc6cnn(C)c56)c3C#N)COC(C3CC3)C4)C2)C1 (stereo not drawn): 6.53
C=CC(=O)N1CC2(CCN(c3nc4c(c(-c5c(C)ccc6[nH]ncc56)c3C#N)C[C@H]3C[C@@H]4C3(C)C)C2)C1 (single isomer, unassigned) [Example 13-114]: 5.86
C=CC(=O)N1CC2(CCN(c3nc4c(c(-c5c(O)ccc6ccccc56)c3C#N)C[C@H]3C[C@@H]4C3)C2)C1 [Example 13-35]: 5.75
C=CC(=O)N1CC2(CCN(c3nc4ccccc4c(-c4c(C)c(C)cc5[nH]ncc45)c3C#N)C2)C1: 7.25
C=CC(=O)N1CC2(CCN(c3nc4c(c(-c5cccc6ccc(O)cc56)c3C#N)COC(C)(C)C4)C2)C1: 6.29
C=CC(=O)N1CC2(CCN(c3nc4c(c(-c5cnccc5C)c3C#N)C[C@H]3C[C@@H]4C3(C)C)C2)C1 (single isomer, unassigned) [Example 13-123]: 6.07
C=CC(=O)N1CC2(CCN(c3nc4c(c(-c5ccccc5F)c3C#N)CCC(c3ccnn3C)C4)C2)C1 (stereo not drawn): 7.46
C=CC(=O)N1CC2(CCN(c3nc4c(c(-c5cc(O)cc(Cl)c5C)c3C)COC(C)(C)C4)C2)C1 (single isomer, unassigned) [Example 12-43]: 7.59
C=CC(=O)N1CC2(CCN(c3nc4c(c(-c5cc(O)ccc5Cl)c3C)COC(C)(C)C4)C2)C1: 6.73
C=CC(=O)N1CC2(C1)CN(c1nc3c(c(-c4c(C)ccc5cnn(C)c45)c1C#N)COC(C)(C)C3)CC2(F)F: 6.53
C=CC(=O)N1CC2(CCN(c3nc4c(c(-c5cc(O)ccc5C)c3C#N)[C@@H]3CC[C@H]4C3)C2)C1 (single isomer, unassigned) [Example 14-10]: 5.94
C=CC(=O)N1CC2(CCN(c3nc4c(c(-c5cc(O)cc6ccccc56)c3C#N)CC(C)(C)C4)C2)C1 (single isomer, unassigned) [Example 13-68]: 4.57
